Measured IC50, listed per entry.
EXPERIMENTAL TARGET: Arabidopsis thaliana P197S-mutant ALS (Arabidopsis thaliana, UniProt P17597, E575Q/P197S)
Construct: vector-encoded N-terminal fusion of pET-32a(+) (Trx/His/S tag by own knowledge); made in house; host or cells: Escherichia coli AD494
Sequence (P17597 56-670 P197S/E575Q): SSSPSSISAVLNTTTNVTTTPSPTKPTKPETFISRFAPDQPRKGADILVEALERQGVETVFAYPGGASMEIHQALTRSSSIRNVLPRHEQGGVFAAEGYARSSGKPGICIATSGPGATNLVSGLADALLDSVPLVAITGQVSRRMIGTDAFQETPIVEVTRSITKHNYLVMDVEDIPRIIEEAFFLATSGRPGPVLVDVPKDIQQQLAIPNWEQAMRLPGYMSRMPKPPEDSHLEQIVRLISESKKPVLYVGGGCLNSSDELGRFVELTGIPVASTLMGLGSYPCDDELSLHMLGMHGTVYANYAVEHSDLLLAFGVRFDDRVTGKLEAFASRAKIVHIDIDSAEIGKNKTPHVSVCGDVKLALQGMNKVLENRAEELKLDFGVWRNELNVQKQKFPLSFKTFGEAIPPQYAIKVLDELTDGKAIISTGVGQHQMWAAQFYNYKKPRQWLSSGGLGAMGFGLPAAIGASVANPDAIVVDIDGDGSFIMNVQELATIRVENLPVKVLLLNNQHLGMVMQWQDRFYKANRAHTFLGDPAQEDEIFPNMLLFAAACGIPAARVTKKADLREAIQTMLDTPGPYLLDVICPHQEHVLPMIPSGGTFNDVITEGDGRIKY
PROCEDURE TEXT: biochemical
RUN CONDITIONS: measured; crude extract of E. coli expressed enzyme; read-out: pI50 P197S (converted)
REPORTED METRIC: IC50

> print(dat)
                                    compound                       experimental.target  value.observed
 1  COc1cc(OC)nc(Oc2cccc(Oc3nc(OC)cc(OC)n3)c2C(=O)O)n1 [Bispyribac-sodium, bispyribac-sodium]  Arabidopsis thaliana P197S-mutant ALS (Arabidopsis thaliana, UniProt P17597, E575Q/P197S)         79.4 nM
 2  COc1cc(OC)nc(NC(=O)NS(=O)(=O)c2cc(NC=O)ccc2C(=O)N(C)C)n1 [Foramsulfuron, foramsulfuron]  Arabidopsis thaliana P197S-mutant ALS (Arabidopsis thaliana, UniProt P17597, E575Q/P197S)          100 nM
 3  CCS(=O)(=O)c1cccnc1S(=O)(=O)NC(=O)Nc1nc(OC)cc(OC)n1 [Rimsulfuron, rimsulfuron]  Arabidopsis thaliana P197S-mutant ALS (Arabidopsis thaliana, UniProt P17597, E575Q/P197S)          398 nM
 4  COc1cc(OC)nc(NC(=O)NS(=O)(=O)c2ncccc2C(=O)N(C)C)n1 [Nicosulfuron, nicosulfuron]  Arabidopsis thaliana P197S-mutant ALS (Arabidopsis thaliana, UniProt P17597, E575Q/P197S)         1000 nM
 5  CCS(=O)(=O)c1nc2ccccn2c1S(=O)(=O)NC(=O)Nc1nc(OC)cc(OC)n1 [Sulfosulfuron, sulfosulfuron]  Arabidopsis thaliana P197S-mutant ALS (Arabidopsis thaliana, UniProt P17597, E575Q/P197S)        39800 nM
 6  COC(=O)c1sccc1S(=O)(=O)NC(=O)Nc1nc(C)nc(OC)n1 [Thifensulfuron-Methyl, thifensulfuron-methyl]  Arabidopsis thaliana P197S-mutant ALS (Arabidopsis thaliana, UniProt P17597, E575Q/P197S)         7940 nM
 7  COc1cc(OC)nc(NC(=O)NS(=O)(=O)N(C)S(C)(=O)=O)n1 [Amidosulfuron, amidosulfuron]  Arabidopsis thaliana P197S-mutant ALS (Arabidopsis thaliana, UniProt P17597, E575Q/P197S)     > 100000 nM
 8  COc1cc(OC)nc(NC(=O)NS(=O)(=O)c2ncccc2C(F)(F)F)n1 [Flazasulfuron, flazasulfuron]  Arabidopsis thaliana P197S-mutant ALS (Arabidopsis thaliana, UniProt P17597, E575Q/P197S)          100 nM
 9  COCc1cnc(C2=NC(C)(C(C)C)C(=O)N2)c(C(=O)O)c1 (stereo not shown) [Imazamox, imazamox]  Arabidopsis thaliana P197S-mutant ALS (Arabidopsis thaliana, UniProt P17597, E575Q/P197S)         5010 nM
10  COc1cc(OC)n2nc(S(=O)(=O)Nc3c(Cl)ccc(C)c3Cl)nc2n1 [Metosulam, metosulam]  Arabidopsis thaliana P197S-mutant ALS (Arabidopsis thaliana, UniProt P17597, E575Q/P197S)         1580 nM
